# measuredOn: sigma receptor
# procedureSummary: Sigma receptor binding assay ([3H]DTG, guinea pig brain membrane homogenates)
# experimentalParameters: displacement of [3H]DTG, guinea pig brain membranes
Where a name gives a salt, the structure may show the parent alone.
In plain terms, low IC50, meaning strictly below 200 nM, gives T, and everything else gives F.

Would you kindly verify if IC50 of CN(C(=N)Nc1cccc2ccccc12)c1cc(Cl)ccc1Cl [Compd. No. 50 (Table I), hydrochloride] is strictly less than 200 nM?
F

Is it true that IC50 reported for CCc1cccc(NC(=N)Nc2cc(C(F)(F)F)ccc2Br)c1 [Compd. No. 4 (Table I), hydrochloride] is less than 200 nM?
T

Strictly below 200 nM: is that where IC50 of CSc1ccc(Cl)c(NC(=N)N(C)c2cccc(C(F)(F)F)c2)c1 [Compd. No. 66 (Table I), hydrochloride] sits?
F

Record CCc1cccc(N(C)C(=N)Nc2cc(Br)ccc2Br)c1 [Compd. No. 11 (Table I), hydrochloride] : is its IC50 strictly below 200 nM?
T

Input CCc1cccc(NC(=N)Nc2cccc(CC)c2)c1 ; condition: IC50 strictly below 200 nM. Does it hold?
T

hey, is IC50 for CCc1cccc(N(C)C(=N)Nc2cc(C(F)(F)F)ccc2Br)c1 [Compd. No. 13 (Table I), hydrochloride] lower than 200 nM or not?
F

Is it true that IC50 reported for CSc1ccc(Cl)c(NC(=N)N(C)c2cccc3cccnc23)c1 is less than 200 nM?
F

# check: IC50 < 200 nM for CCc1cccc(N(C)C(=N)Nc2cccc3ccccc23)c1
F

* * *

# measuredOn: sigma receptor
# procedureSummary: Sigma receptor binding assay ([3H]DTG, guinea pig brain membrane homogenates)
# experimentalParameters: displacement of [3H]DTG, guinea pig brain membranes
Counter-ions that a name gives are not always drawn.
readoutName: IC50 (nM)
Entry rule: numbers only, all in nM.

Could you please provide reported IC50 for CCc1cccc(N(C)C(=N)Nc2cc(C(F)(F)F)ccc2Cl)c1 [Compd. No. 15 (Table I), hydrochloride] ? Thanks!
120

Specify IC50 for CCc1cccc(NC(=N)Nc2cccc3ccccc23)c1 and stop.
53.8

Dear colleague, please send me the reported IC50 for CSc1ccc(Br)c(NC(=N)N(C)c2cccc(C(F)(F)F)c2)c1 [Compd. No. 69 (Table I), hydrochloride] when you can.
631

Tell me its IC50 given CCc1cccc(N(C)C(=N)Nc2cc(Cl)ccc2Cl)c1 [Compd. No. 10 (Table I), hydrochloride] as the entry.
28.5

Answer with reported IC50 of CSc1ccc(C(F)(F)F)cc1NC(=N)Nc1cccc2ccccc12 [Compd. No. 42 (Table I), hydrochloride]
418

Entry CCc1cccc(NC(=N)Nc2cccc(Cl)c2)c1 needs its IC50 filled in; supply it.
15.5

Return reported IC50. Input compound: CCc1cccc(NC(=N)Nc2cc(CC)ccc2Br)c1 [Compd. No. 23 (Table I), hydrochloride]
5.07

Quickly give me recorded IC50 for CCc1cccc(N(C)C(=N)Nc2cc(C(F)(F)F)ccc2F)c1 [Compd. No. 14 (Table I), hydrochloride]
85

Respond only with IC50 recorded for CCc1ccc(Br)c(NC(=N)N(C)c2cccc(SC)c2)c1 [Compd. No. 64 (Table I), hydrochloride]
180

Given CSc1ccc(Cl)c(NC(=N)Nc2cccc3ccccc23)c1 [Compd. No. 46 (Table I), hydrochloride] , respond with its IC50.
25.4

Please give measured IC50 of the following entry: CSc1cccc(N(C)C(=N)Nc2cc(Cl)ccc2Cl)c1 [Compd. No. 62 (Table I), hydrochloride]
130

Please report IC50 for the following compound: CN(C(=N)Nc1cc(Cl)ccc1Cl)c1cccc(C(F)(F)F)c1 [Compd. No. 68 (Table I), hydrochloride]
110

# return recorded IC50 for entry Cc1ccc(C)c(NC(=N)Nc2cccc3ccccc23)c1 [Compd. No. 33 (Table I), hydrochloride]
27.4

For CCc1cccc(N(C)C(=N)Nc2cc(CC)ccc2F)c1 [Compd. No. 20 (Table I), hydrochloride] , write its IC50.
112

# return recorded IC50 for input CCc1ccc(Cl)c(NC(=N)N(C)c2cccc(C(F)(F)F)c2)c1 [Compd. No. 67 (Table I), hydrochloride]
200

* * *

# measuredOn: sigma receptor
# procedureSummary: Sigma receptor binding assay ([3H]DTG, guinea pig brain membrane homogenates)
# experimentalParameters: displacement of [3H]DTG, guinea pig brain membranes
Structures can show the parent of a compound that is named as a salt.
readoutName: log10 of IC50 (log10 of the value in µM)
All values: base-10 log of IC50 in µM.

Retrieve log10 of IC50 measured for N=C(Nc1cc(C(F)(F)F)ccc1F)Nc1cccc2ccccc12 [Compd. No. 39 (Table I), hydrochloride] and print it.
-1.10

Return log10 of IC50 for the following molecule: N=C(Nc1cc(C(F)(F)F)ccc1Br)Nc1cccc2ccccc12 [Compd. No. 41 (Table I), hydrochloride]
-1.30

For the molecule N=C(Nc1cc(C(F)(F)F)ccc1Cl)Nc1cccc2ccccc12 [Compd. No. 40 (Table I), hydrochloride] , give its reported log10 of IC50.
-1.28

Please look at this molecule and report its log10 of IC50: CSc1cccc(N(C)C(=N)Nc2cc(SC)ccc2Cl)c1 [Compd. No. 60 (Table I), hydrochloride]
-0.32

Return the recorded log10 of IC50 value; entry: CCc1ccc(Br)c(NC(=N)N(C)c2cccc(C(F)(F)F)c2)c1 [Compd. No. 70 (Table I), hydrochloride]
-0.78

Specify reported log10 of IC50 for the molecule shown: CCc1cccc(NC(=N)Nc2cc(SC)ccc2Cl)c1 [Compd. No. 25 (Table I), hydrochloride]
-1.80

Fill in reported log10 of IC50 for this entry: CN(C(=N)Nc1cccc2ccccc12)c1cccc(Cl)c1
0.47

* * *

# measuredOn: PCP receptor
# procedureSummary: PCP receptor radioligand binding assay ([3H]MK-801, rat brain membranes)
# experimentalParameters: read-out: [3H-MK801] IC50; displacement of [3H]MK-801, rat brain membranes
Structures can show the parent of a compound that is named as a salt.
Give measured IC50 for each item. Keep answers brief.
Respond numerically; units are nM and should not be typed.

Send back PCP receptor IC50 of Cc1cccc(NC(=N)Nc2cccc3ccccc23)c1 only.
192

Find the measured IC50 of CSc1ccc(Br)c(NC(=N)N(C)c2cccc(C(F)(F)F)c2)c1 [Compd. No. 69 (Table I), hydrochloride] with PCP receptor as test system.
5.55

Report value: IC50, system: PCP receptor, molecule: CCc1cccc(N(C)C(=N)Nc2cc(CC)ccc2F)c1 [Compd. No. 20 (Table I), hydrochloride]
126

Return reported IC50 for target or system PCP receptor, item CCc1cccc(N(C)C(=N)N(C)c2cc(Cl)ccc2Cl)c1 [Compd. No. 26 (Table I), hydrochloride] .
93.7

Quote PCP receptor IC50 for entry N=C(Nc1cc(C(F)(F)F)ccc1Br)Nc1cccc2ccccc12 [Compd. No. 41 (Table I), hydrochloride] .
51.1

For PCP receptor, give IC50 of the listed molecule: CCc1cccc(NC(=N)Nc2cccc(Cl)c2)c1
146

Print PCP receptor IC50 for CSc1cccc(N(C)C(=N)Nc2cc(Cl)ccc2Cl)c1 [Compd. No. 62 (Table I), hydrochloride] .
59.3

Find the measured IC50 of CCc1cccc(N(C)C(=N)Nc2cc(SC)ccc2Br)c1 with PCP receptor as test system.
3.19

Enter recorded IC50 with PCP receptor for CCc1cccc(N(C)C(=N)Nc2cc(CC)ccc2Br)c1 [Compd. No. 22 (Table I), hydrochloride] here.
16.7

Give IC50; test system PCP receptor; molecule CSc1ccc(Cl)c(NC(=N)Nc2cccc3ccccc23)c1 [Compd. No. 46 (Table I), hydrochloride]
43

Retrieve IC50 on PCP receptor; query CN(C(=N)Nc1cccc2ccccc12)c1cc(Cl)ccc1Cl [Compd. No. 50 (Table I), hydrochloride]
62

Print PCP receptor IC50 for CCc1cccc(NC(=N)Nc2cc(SC)ccc2Cl)c1 [Compd. No. 25 (Table I), hydrochloride] .
15.4

Write down measured IC50 (PCP receptor) for this molecule. CCc1ccc(Br)c(NC(=N)N(C)c2cccc(C(F)(F)F)c2)c1 [Compd. No. 70 (Table I), hydrochloride]
20.4

Report IC50 under test system PCP receptor for CCc1ccc(Cl)c(NC(=N)N(C)c2cccc(C(F)(F)F)c2)c1 [Compd. No. 67 (Table I), hydrochloride] .
77

Please report the measured IC50 for CCc1cccc(NC(=N)Nc2cc(CC)ccc2Cl)c1 [Compd. No. 8 (Table I), hydrochloride] tested on PCP receptor.
45.2

* * *

# measuredOn: PCP receptor
# procedureSummary: PCP receptor radioligand binding assay ([3H]MK-801, rat brain membranes)
# experimentalParameters: read-out: [3H-MK801] IC50; displacement of [3H]MK-801, rat brain membranes
Where a name gives a salt, the structure may show the parent alone.
What IC50 was measured for each of the following?
I only need the number, in nM, no unit after it.

For CCc1cccc(NC(=N)Nc2cc(C(F)(F)F)ccc2Br)c1 [Compd. No. 4 (Table I), hydrochloride] , write its IC50.
86.9

Quick one: give measured IC50 for CCc1ccc(Cl)c(NC(=N)Nc2cc(C)ccc2Cl)c1 [Compd. No. 29 (Table I)]
54.7

Specify reported IC50 for the molecule shown: CSc1ccc(Cl)c(NC(=N)N(C)c2cccc(I)c2)c1 [Compound 77]
2.11

Look up and report measured IC50 for this entry: CN(C(=N)Nc1cc(Br)ccc1Br)c1cccc(OC(F)(F)F)c1 [Compd. No. 73 (Table I), hydrochloride]
25.6

Provide measured IC50 value, entry: CCc1cccc(N(C)C(=N)Nc2cccc(Br)c2)c1 [Compd. No. 19 (Table I)]
105

Read the entry CCc1cccc(NC(=N)Nc2cccc3ccccc23)c1 [Compd. No. 45 (Table I)] and write its reported IC50.
39

Using known records, supply IC50 for CN(C(=N)Nc1cc(Br)ccc1Br)c1cccc(S(C)(=O)=O)c1 [Compound 75]
530

Quote IC50 reported for CCc1ccc(Cl)c(N(C)C(=N)Nc2cccc3ccccc23)c1 [Compd. No. 57 (Table I), hydrochloride] please.
32.8

Tell me measured IC50 for CSc1ccc(C(F)(F)F)cc1NC(=N)Nc1cccc2ccccc12 [Compd. No. 42 (Table I), hydrochloride] please.
170

Return IC50 for the following molecule: N=C(Nc1cc(C(F)(F)F)ccc1F)Nc1cccc2ccccc12 [Compd. No. 39 (Table I), hydrochloride]
38.4

Let me know recorded IC50 for CCc1cccc(NC(=N)Nc2cc(C(F)(F)F)ccc2Cl)c1 [Compd. No. 6 (Table I), hydrochloride] , thanks.
57.1

Check the records and state IC50 for CCc1ccc(Cl)c(NC(=N)N(C)c2cccc(SC)c2)c1 [Compd. No. 61 (Table I), hydrochloride]
12.5

Give IC50 for the following molecule: CSc1ccc(Cl)c(NC(=N)N(C)c2cccc3cccnc23)c1 [Compound 79]
22.3

Given the molecule N=C(Nc1cc(Br)ccc1Br)Nc1cccc2ccccc12 [Compd. No. 32 (Table I), hydrochloride] , write its reported IC50.
48.6

Give the reported IC50 for this molecule. CCc1ccc(Cl)c(NC(=N)Nc2cccc(I)c2)c1 [Compound 78]
13.7

Tell me IC50 reported for CCc1cccc(N(C)C(=N)Nc2cc(SC)ccc2Cl)c1 [Compd. No. 24 (Table I), hydrochloride]
6.7

Give IC50 for the following molecule: CCc1cccc(N(C)C(=N)Nc2cc(Br)ccc2Br)c1 [Compd. No. 11 (Table I), hydrochloride]
47.6

Dear colleague, please send me the reported IC50 for CCc1cccc(NC(=N)Nc2cc(CC)ccc2F)c1 [Compd. No. 21 (Table I), hydrochloride] when you can.
64.8

Supply reported IC50 belonging to this molecule: CCc1cccc(N(C)C(=N)N(C)c2cc(Br)ccc2Br)c1 [Compd. No. 27 (Table I), hydrochloride]
35.5

Return the recorded IC50 value; entry: CN(C(=N)Nc1cc(Br)ccc1Br)c1cccc(C(F)(F)F)c1 [Compd. No. 71 (Table I), hydrochloride]
34

Note IC50 for the molecule shown: CCc1cccc(NC(=N)Nc2cccc(CC)c2)c1 [Compd. No. 9 (Table I)]
168

Report IC50, nothing else, for this molecule: CSc1ccc(Cl)c(NC(=N)N(C)c2cccc(Br)c2)c1 [Compd. No. 72 (Table I), hydrochloride]
4.65

Output IC50 of CSc1cccc(N(C)C(=N)Nc2cc(SC)ccc2Cl)c1 [Compd. No. 60 (Table I), hydrochloride]
2.43

Check the records and state IC50 for N=C(Nc1cc(C(F)(F)F)ccc1Cl)Nc1cccc2ccccc12 [Compd. No. 40 (Table I), hydrochloride]
38.6

Identify measured IC50 associated with CN(C(=N)Nc1cc(Br)ccc1Br)c1cccc([S+](C)[O-])c1 (centres unmarked) [Compound 76]
322

# return recorded IC50 for entry CCc1cccc(N(C)C(=N)N(C)c2cc(CC)ccc2Cl)c1 [Compd. No. 28 (Table I), hydrochloride]
145

Indicate its recorded IC50; the molecule in question is CCc1cccc(N(C)C(=N)Nc2cc(C(F)(F)F)ccc2Cl)c1 [Compd. No. 15 (Table I), hydrochloride]
131

Consider the molecule CCc1cccc(N(C)C(=N)Nc2cc(C(F)(F)F)ccc2F)c1 [Compd. No. 14 (Table I), hydrochloride] and give its recorded IC50.
252

Quickly give me recorded IC50 for Cc1ccc(Cl)c(NC(=N)Nc2cccc3cccnc23)c1 [Compd. No. 48 (Table I), hydrochloride]
32

Consider the molecule CCc1cccc(N(C)C(=N)Nc2cccc3ccccc23)c1 [Compd. No. 58 (Table I)] and give its recorded IC50.
37.5

Quickly give me recorded IC50 for CSc1cccc(N(C)C(=N)Nc2cc(SC)ccc2Br)c1 [Compd. No. 63 (Table I)]
2.15

Complete the entry with IC50 for CCc1cccc(N(C)C(=N)Nc2cccc(Cl)c2)c1 [Compd. No. 12 (Table I)]
646
